Target: T1, FLI1 276-371 (UniProt Q01543 276-371)
T1 sequence: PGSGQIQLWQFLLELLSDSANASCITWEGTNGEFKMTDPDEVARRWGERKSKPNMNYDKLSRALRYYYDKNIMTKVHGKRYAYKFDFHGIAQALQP
Test: fluorescence anisotropy
reported endpoint: Kd (nM)
Give bare numbers, in nM.

Can you share its Kd? I mean this binder: 1site_weak (dsDNA) DNA 1: TTGAAGGAAGAG DNA 2: CTCTTCCTTCAA
402
